A compilation of published IC50 results with Inosine-5'-monophosphate dehydrogenase 1 (Homo sapiens, UniProt P20839).
Give the value in nM but do not write nM after it.

Take a look at these entries with their results.
smiles_notation=COc1cc(NC(=O)Nc2cccc(C)c2)ccc1-c1cnco1 measured_property=IC50 readout_value=55
smiles_notation=CCc1c(C)c2c(c(O)c1C/C=C(\C)COCP(=O)(O)O)C(=O)OC2 measured_property=IC50 readout_value=38
smiles_notation=NC(=O)c1csc([C@@H]2O[C@H](CNS(=O)(=O)CS(=O)(=O)NC[C@H]3O[C@@H](n4cnc5c(N)ncnc54)[C@H](O)[C@@H]3O)[C@@H](O)[C@H]2O)n1 measured_property=IC50 readout_value=23600

QUERY: Query the reported IC50 for Inosine-5'-monophosphate dehydrogenase 1 (Homo sapiens, UniProt P20839); item: COc1c(C)c2c(c(O)c1C/C=C(\C)CCC(=O)Nc1ncn[nH]1)C(=O)OC2
RESULT: 105

QUERY: Value wanted: IC50 (Inosine-5'-monophosphate dehydrogenase 1 (Homo sapiens, UniProt P20839)) of entry COc1cc2nc(-c3cccc(C)c3)cc(O)c2cc1-c1cnco1
RESULT: 150

QUERY: Which IC50 is reported with Inosine-5'-monophosphate dehydrogenase 1 (Homo sapiens, UniProt P20839) for this entry: COc1c(C)c2c(c(O)c1CC=C=C(C)CCC(=O)O)C(=O)OC2 ?
RESULT: 1200

QUERY: Checklist item: IC50 tested on Inosine-5'-monophosphate dehydrogenase 1 (Homo sapiens, UniProt P20839), entry COc1ccc(-c2cc(O)c3cc(-c4cnco4)c(OC)cc3n2)cc1 , value?
RESULT: 90

QUERY: Missing value: IC50, Inosine-5'-monophosphate dehydrogenase 1 (Homo sapiens, UniProt P20839), entry COc1c(C)c2c(c(O)c1C/C=C(\C)CCC(=O)[C@@H]1CO1)C(=O)OC2 . Fill in?
RESULT: 558
